These data points were gathered from PubChem BioAssay.

assay: JC-1 mitochondrial signal, unstimulated HepG2 cells – cell-based, JC-1 fluorescence, 24 h, 100 nL compound, profiling panel (AID 1167); conditions: HepG2 mitochondrial potential, higher = more signal; note: test concentration not given here
measurement kind: z-score
API doc: respond with a numeric literal and nothing else, no unit.

These solved cases illustrate the format of a correct answer.
>>> measured_number("[N-]=[N+]=Nc1ccccc1[C@H]1OC(c2ccc(OCCCO)cc2)=N[C@@]1(Cc1ccccc1)C(=O)NCc1ccccc1")
0.671
>>> measured_number("C=C(CCCC)/C(=C/C[C@H](OC(=O)c1ccncc1)c1ccc(CO)o1)c1cc(C(=O)OC)ccc1OC")
-0.132
>>> measured_number("Cc1ccc(S[C@]2(C(=O)NCCN3CCOCC3)CC(=O)N(C3Cc4ccccc4C3)[C@@H]2c2ccc(CO)cc2)cc1")
0.699
>>> measured_number("O=C1C2C=CC(C(O)c3cccc4ccccc34)N(Nc3ccccc3)C2C(=O)N1c1ccccc1 (configuration not stated)")
-1.09
>>> measured_number("NC(=O)NCC#Cc1ccc2c(c1)[C@]1(C(=O)N2)[C@H](c2ccc(O)cc2)N2[C@H](c3ccccc3)[C@H](c3ccccc3)OC(=O)[C@H]2[C@@H]1C(=O)NC[C@H](O)c1ccccc1")
0.163
>>> measured_number("OCc1ccc(-c2cc[n+](Cc3cccc(OC(F)(F)F)c3)cc2)cc1")
-0.628

// moving on: another record for z-score
Entry under review: CCN(CC)c1ccc(N2CC=CC34O[C@@H]5/C=C\CCCOC(=O)C5[C@H]3C(=O)N(CCCCCCO)[C@@H]4C2=O)cc1 (some centres not stated) . Reported z-score?
1.09

###

The entries below come with measured composite z-score values attached.
molecular target: Focal adhesion kinase 1 (Homo sapiens) (UniProt Q05397); assay: PTK2 protein binding on printed compound slides – biochemical, small-molecule microarray, 635/667 nm fluorescence, BSA, DTT, primary screen (AID 1130); details: 635 nm fluorescence, higher = more signal;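 note: composite of spot emission at 667 nm and signal to noise over triplicate slides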
Sequence (Q05397 whole entry, looked up): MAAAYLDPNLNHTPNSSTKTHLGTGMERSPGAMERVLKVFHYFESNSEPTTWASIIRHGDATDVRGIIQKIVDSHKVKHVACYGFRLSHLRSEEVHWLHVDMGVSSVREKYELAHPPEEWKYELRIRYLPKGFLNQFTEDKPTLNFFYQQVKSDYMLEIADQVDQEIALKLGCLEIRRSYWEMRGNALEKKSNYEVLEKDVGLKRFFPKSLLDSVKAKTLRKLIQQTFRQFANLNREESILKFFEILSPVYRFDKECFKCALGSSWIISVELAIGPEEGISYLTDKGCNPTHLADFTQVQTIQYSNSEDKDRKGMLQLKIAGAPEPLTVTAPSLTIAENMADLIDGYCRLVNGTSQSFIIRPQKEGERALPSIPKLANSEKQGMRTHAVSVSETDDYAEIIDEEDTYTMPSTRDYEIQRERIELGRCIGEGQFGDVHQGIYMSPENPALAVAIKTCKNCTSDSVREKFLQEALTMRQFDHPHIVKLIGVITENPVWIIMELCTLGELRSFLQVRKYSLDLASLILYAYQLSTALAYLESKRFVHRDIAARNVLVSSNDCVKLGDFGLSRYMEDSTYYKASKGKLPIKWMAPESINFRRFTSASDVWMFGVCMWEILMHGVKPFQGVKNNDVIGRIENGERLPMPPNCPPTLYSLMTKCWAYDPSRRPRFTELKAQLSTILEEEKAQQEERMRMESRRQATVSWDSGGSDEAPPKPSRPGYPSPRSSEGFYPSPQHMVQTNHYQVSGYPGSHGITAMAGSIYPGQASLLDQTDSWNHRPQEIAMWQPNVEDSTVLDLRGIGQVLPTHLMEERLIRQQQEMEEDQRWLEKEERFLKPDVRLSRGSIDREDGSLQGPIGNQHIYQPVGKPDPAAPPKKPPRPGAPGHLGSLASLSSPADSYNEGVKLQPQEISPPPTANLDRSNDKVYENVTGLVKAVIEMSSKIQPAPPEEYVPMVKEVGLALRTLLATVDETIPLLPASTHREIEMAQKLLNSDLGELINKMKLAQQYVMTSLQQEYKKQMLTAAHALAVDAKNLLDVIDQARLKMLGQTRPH
Kindly provide the number alone.

Sample answers from the record:
>>> measured_number("C=C(CCCC)/C(=C/C[C@H](OC(=O)c1ccncc1)c1ccc(CO)o1)c1cc(C(=O)OC)ccc1OC")
-0.0174
>>> measured_number("CCCN1C(=O)[C@@]2(Cc3ccccc3)N=C(c3ccc(OCCCO)cc3)O[C@H]2c2ccccc21")
0.86
>>> measured_number("CCN(CC)c1ccc(N2CC=CC34O[C@@H]5/C=C\\CCCOC(=O)C5[C@H]3C(=O)N(CCCCCCO)[C@@H]4C2=O)cc1 (stereo partly specified)")
-0.177
>>> measured_number("COc1ccc([Si](C)(C)[C@H]2[C@H](CCn3cc(CCO)nn3)O[C@@]3(C(=O)N(Cc4cccc(N5C(=O)c6cccc7cccc5c67)c4)c4ccccc43)[C@@H]2C)cc1")
0.124
>>> measured_number("COc1ccc(C#Cc2ccc3c(c2)[C@]2(C(=O)N3)[C@H](c3ccc(OCCO)cc3)N3[C@H](c4ccccc4)[C@H](c4ccccc4)OC(=O)[C@H]3[C@@H]2C(=O)N2CCN(c3ncccn3)CC2)cc1")
0.0451

Attention now turns to another entry.
Sample COCCOC(=O)N1C(=O)[C@@]2(c3ccccc31)[C@H](c1ccccc1OCCO)N1[C@H](c3ccccc3)[C@H](c3ccccc3)OC(=O)[C@H]1[C@@H]2C(=O)N1CCc2cc(OC)c(OC)cc2C1 — what was its composite z-score?
0.413

###

experiment: calcein-AM signal in unstimulated myeloma cells – cell-based, calcein-AM fluorescence, 48 h, PK04 Diversity Set, profiling panel (AID 1166); details: RPMI8226 myeloma viability, higher = more signal;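 note: cells grown under basal conditions without added stimulus; test concentration not given here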
Measured z-score values are reported for all entries that follow.

Take a look at these entries with their results.
>>> result("C=CC[C@]1(C(=O)N(C)C)N=C(c2ccc(OCCCO)cc2)O[C@H]1c1ccccc1")
-1.19
>>> result("COc1ccc(C(=O)Nc2ccc(CN3C(=O)[C@@]4(O[C@@H](CC(=O)N5Cc6ccccc6C[C@H]5CO)[C@H]([Si](C)(C)c5ccc(OC)cc5)[C@H]4C)c4ccccc43)cc2)cc1")
-0.881
>>> result("COC(=O)[C@]1(Cc2ccccc2CN=[N+]=[N-])N=C(c2ccc(OCCCO)cc2)O[C@@H]1c1ccccc1CN=[N+]=[N-]")
-4.08
>>> result("COc1ccc(C#Cc2ccc3c(c2)[C@]2(C(=O)N3)[C@H](c3ccc(OCCO)cc3)N3[C@H](c4ccccc4)[C@H](c4ccccc4)OC(=O)[C@H]3[C@@H]2C(=O)N2CCN(c3ncccn3)CC2)cc1")
-0.106
>>> result("COc1cccc(C[C@H]2C[C@@H](CO[Si](C(C)C)(C(C)C)C(C)C)N3C(=O)[C@]4(C(C)=O)O[C@]23[C@H]2C(=O)N(C)C(=O)[C@H]24)c1")
-4.26
>>> result("CCOC(=O)C1=CC[C@@H](c2cccc(Br)c2)N(S(=O)(=O)c2ccc(C)cc2)[C@H]1c1ccc([N+](=O)[O-])cc1")
-1.24
>>> result("CC(C)[Si](C#C[Si](C(C)C)(C(C)C)C(C)C)(O[C@H](C)c1cn(Cc2cccc(Cl)c2)nn1)C(C)C")
0.133
>>> result("[N-]=[N+]=NCc1ccccc1C[C@]1(C(=O)NCCN2CCOCC2)N=C(c2ccc(OCCCO)cc2)O[C@H]1c1ccccc1")
-1.06
>>> result("Cc1ccc(-c2cccc(=O)o2)cc1")
-0.774
>>> result("N#Cc1ccc(NN2C(C(O)c3ccccc3)C=CC3C(=O)N(c4ccccc4)C(=O)C32)cc1 (configuration not stated)")
-0.32

Given the entry NC(=O)NCC#Cc1ccc2c(c1)[C@]1(C(=O)N2)[C@H](c2ccc(OCCO)cc2)N2[C@H](c3ccccc3)[C@H](c3ccccc3)OC(=O)[C@H]2[C@@H]1C(=O)N1CCCCCCC1 , report its measured z-score.
-1.31

// returns reported z-score for input O=C1C2C=CC(C(O)c3ccccn3)N(Nc3ccccc3)C2C(=O)N1c1ccccc1 (configuration not stated)
-0.0462

Any idea what z-score was measured for COC(=O)[C@@]1(Cc2ccc(F)cc2)[C@H]2c3cc(C(=O)N(C)C)n(Cc4ccc(C)c(F)c4F)c3C[C@H]2CN1C(=O)c1ccccc1 ?
0.299

Item [N-]=[N+]=NCc1ccccc1[C@H]1OC(c2ccc(OCCCO)cc2)=N[C@@]1(Cc1ccccc1N=[N+]=[N-])C(=O)N1CCCCC1 has what recorded z-score?
-2.79

What does the data say about its z-score? Entry: COC(=O)[C@@]1(Cc2ccccc2)[C@H]2c3cc(C(=O)N4CCCC4)n(CCO)c3C[C@H]2CN1C(=O)c1ccccc1
0.688

May I ask what z-score has been recorded for CC(C)C(CO)N1C(=O)[C@@H]2[C@H]3C(=O)OCC=C[C@H]3OC23C=CCN(Cn2nnc4ccccc42)C(=O)[C@@H]13 (some centres not stated) ?
-0.653

What measured z-score goes with COC(=O)[C@@]1(Cc2ccc(OC)cc2)[C@H]2c3cc(C(=O)N4CCCC4)n(Cc4ccc(C)o4)c3C[C@H]2CN1C(=O)c1ccccc1 ?
-4.69

What value of measured z-score is listed for COCCOC(=O)N1C(=O)[C@@]2(c3ccccc31)[C@H](c1ccccc1OCCO)N1[C@H](c3ccccc3)[C@H](c3ccccc3)OC(=O)[C@H]1[C@@H]2C(=O)N1CCc2cc(OC)c(OC)cc2C1 ?
-1.49

z-score lookup needed for CC(C)(C)N1CC=CC23O[C@@H]4C=CCCOC(=O)C4[C@H]2C(=O)N(CCCO)[C@@H]3C1=O (some centres not stated) , thanks.
-0.783

// z-score lookup, key: CCOC(=O)C[C@H]1[C@H](OC(=O)c2cc3ccccc3oc2=O)[C@@H](NC(=O)c2ccc3ccccc3n2)c2cc(OCCCO)ccc2N1C(=O)c1ccc2ccccc2n1
-0.719

// returns reported z-score for input Cc1cc(C)c(C(O)C2C=CC3C(=O)N(c4ccccc4)C(=O)C3N2Nc2ccc([N+](=O)[O-])cc2)c(C)c1 (configuration not stated)
-0.662

Could you tell me which z-score is on file for COCCOC(=O)N1C(=O)[C@@]2(c3cc(C#CCNC(N)=O)ccc31)[C@H](C(N)=O)[C@H]1C(=O)O[C@H](c3ccccc3)[C@H](c3ccccc3)N1[C@@H]2c1ccc(OCCO)cc1 ?
0.66

Query (compound): CN1C(=O)C2C=CC(C(O)c3ccc(F)cc3)N(N3CCCCC3)C2C1=O (configuration not stated) ; field requested: z-score
0.0924

# get_value(readout='z-score', item= COCCOC(=O)N1C(=O)[C@@]2(c3cc(C#CCCO)ccc31)[C@H](C(=O)NC[C@H](O)c1ccccc1)[C@H]1C(=O)O[C@H](c3ccccc3)[C@H](c3ccccc3)N1[C@@H]2c1ccccc1OCCO )
-3.05

###

experiment: compound effects on hepatocellular carcinoma cell viability – HepG2, calcein-AM fluorescence, 48 h, basal, profiling panel (AID 1164); conditions: higher = more signal; note: test concentration not given here
measurement kind: z-score
Form rule: numeric answer, no unit written next to it.

Solved cases (5 shown):
>>> measured_number("CC(C)C[C@@H]1NC(=O)[C@@H]2C[C@H](C(=O)NCc3ccc(F)cc3)[C@H](c3ccc(O)cc3)N2C1=O")
-1.03
>>> measured_number("Cc1ccc(S[C@]2(C(=O)NCCN3CCOCC3)CC(=O)N(C3Cc4ccccc4C3)[C@@H]2c2ccc(CO)cc2)cc1")
-0.619
>>> measured_number("CCCC=C(CCC)[C@@H](NS(=O)(=O)c1cccc2cccnc12)c1ccc(C(=O)OC)cc1")
-1.38
>>> measured_number("CN(C)C(=O)[C@@]1(CCC(=O)OC(C)(C)C)COC(c2ccc(OCCCO)cc2)=N1")
0.306
>>> measured_number("C=CCN1C(=O)[C@@]2(O[C@@H](CCO)[C@H]([Si](C)(C)c3ccc(OC)cc3)[C@H]2C)c2cc(NC(=O)[C@H](C)O)ccc21")
-2.92

Fill in the blank: the reported z-score of O=C1O[C@H](c2ccccc2)[C@H](c2ccccc2)N2[C@H]1[C@@H](C(=O)N1CCN(c3ncccn3)CC1)[C@]1(C(=O)Nc3ccc(C#CCCO)cc31)[C@H]2c1ccccc1OCCO is ____.
0.313

Fill blank: measured z-score of the molecule CC1CC/C=C\[C@H]2OC34C=CCN(Cc5ccccc5)C(=O)[C@H]3N(CCO)C(=O)[C@@H]4C2C(=O)O1 (some centres not stated) is ____.
0.337
